Recorded Plant response rating, Barnyardgrass for the following compounds
System: barnyardgrass
experimentalDetails: Test E preemergence
Format: in vivo, Echinochloa crus-galli
cond: 125 g ai/ha, 21 days, scale 0 to 100
Answer using only a numeral; do not append any unit.

Before answering, review these 3 worked examples.
{"columns": ["chemicalStructure", "testSystem", "Plant response rating, Barnyardgrass"],
 "data": [
  ["CCc1cc(C(=O)NCC(F)(F)F)nn1Cc1ccnc(C(F)(F)F)c1", "barnyardgrass", 100],
  ["CCCc1cc(C(=O)NCC(F)(F)F)nn1Cc1ccnc(C(F)(F)F)c1", "barnyardgrass", 95],
  ["CCOc1cc(C(=O)NCC(F)(F)F)nn1Cc1ccnc(C(F)(F)F)c1", "barnyardgrass", 100]
]}

INPUT: Please look up its Plant response rating, Barnyardgrass: CCc1cc(C(=O)NC(C)C)nn1Cc1ccnc(C(F)(F)F)c1
OUTPUT: 100

---

Tested on: waterhemp
experimentalDetails: Test C preemergence
Assay type: in vivo, Amaranthus rudis
cond: preemergence, 62 g ai/ha; scale 0 to 100 (0 no effect, 100 complete control), 13 to 15 days
Recorded Waterhemp plant response rating for the following molecules

Before answering, review these 5 worked examples.
{"columns": ["chemicalStructure", "observedValue"],
 "data": [
  ["CCONC(=O)c1cc(OCC)n(Cc2ccnc(C(F)(F)F)c2)n1", 100],
  ["CCONC(=O)c1cc(CC)n(Cc2cc(C(F)(F)F)no2)n1", 65],
  ["CCNC(=O)c1cc(CC)n(Cc2ccnc(OC(F)F)c2)n1", 100],
  ["CCOc1cc(C(=O)NC2CC2)nn1Cc1ccnc(C(F)(F)F)c1", 100],
  ["Cc1cc(C(=O)NC(C)C)nn1Cc1ccnc(C(F)(F)F)c1", 100]
]}

Shifting focus to the molecule that follows.
INPUT: Please look up its Waterhemp plant response rating: CCCNC(=O)c1cc(CC)n(Cc2ccnc(OC(F)F)c2)n1
OUTPUT: 100

---

Tested on: barnyardgrass
experimentalDetails: Test C preemergence
Type: in vivo, Echinochloa crus-galli
cond: preemergence, 125 g ai/ha; 13 to 15 days; scale 0 to 100, 0 = no effect, 100 = complete control
measuredMetric: Plant response rating, Barnyardgrass
Answer using only a numeral; do not append any unit.

Before answering, review these 3 worked examples.
{"columns": ["chemicalStructure", "observedValue"],
 "data": [
  ["O=C(NCC(F)(F)F)c1cc(CCCl)n(Cc2ccnc(C(F)(F)F)c2)n1", 100],
  ["CCc1cc(C(=O)NC2CC2)nn1Cc1cc(C(F)(F)C(F)(F)F)nn1C", 95],
  ["CCc1cc(C(=O)NCC2CC2)nn1Cc1ccnc(C(F)(F)F)c1", 100]
]}

Shifting focus to the compound that follows.
INPUT: Please look up its Plant response rating, Barnyardgrass: CCONC(=O)c1cc(OCC)n(Cc2ccnc(C(F)(F)F)c2)n1
OUTPUT: 100

---

System: buckwheat, wild
experimentalDetails: Test D postemergence
Type: in vivo, Polygonum convolvulus
cond: postemergence, 62 g ai/ha; scale 0 to 100
Recorded Buckwheat, Wild plant response rating for the following compounds
Answer using only a numeral; do not append any unit.

Before answering, review these 3 worked examples.
{"columns": ["chemicalStructure", "Buckwheat, Wild plant response rating"],
 "data": [
  ["CCc1cc(C(=O)NC(C)C)nn1Cc1ccnc(C(F)(F)F)c1", 50],
  ["CCCc1cc(C(=O)NCC(F)(F)F)nn1Cc1ccnc(C(F)(F)F)c1", 65],
  ["CCCc1cc(C(=O)NCC(F)(F)F)nn1Cc1cc(C(F)(F)F)nn1C", 65]
]}

Shifting focus to the compound that follows.
INPUT: Please look up its Buckwheat, Wild plant response rating: CCOc1cc(C(=O)NC(C)C)nn1Cc1ccnc(C(F)(F)F)c1
OUTPUT: 60
